Please go through the items and note down their inhibition.
Target system: Beta-secretase 1 (Homo sapiens, UniProt P56817)
Sequence (P56817 whole entry): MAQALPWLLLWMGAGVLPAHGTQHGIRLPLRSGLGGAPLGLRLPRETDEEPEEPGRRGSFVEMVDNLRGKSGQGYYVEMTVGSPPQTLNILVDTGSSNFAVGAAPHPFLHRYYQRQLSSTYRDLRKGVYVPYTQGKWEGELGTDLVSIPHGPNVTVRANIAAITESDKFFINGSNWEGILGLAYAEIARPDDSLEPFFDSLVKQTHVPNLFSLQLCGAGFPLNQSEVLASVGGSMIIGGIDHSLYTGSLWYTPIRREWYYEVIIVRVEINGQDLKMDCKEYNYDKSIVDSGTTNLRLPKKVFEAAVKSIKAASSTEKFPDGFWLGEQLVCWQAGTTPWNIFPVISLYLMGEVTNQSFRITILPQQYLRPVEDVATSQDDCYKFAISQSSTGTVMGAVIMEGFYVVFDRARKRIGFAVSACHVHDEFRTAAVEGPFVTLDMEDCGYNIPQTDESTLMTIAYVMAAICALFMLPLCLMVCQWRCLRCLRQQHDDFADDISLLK
Test: Inhibition of human recombinant BACE1
Design: concentration or dose not given beside the values
Recorded conditions: concentration not given here
Use % as the unit, but write only the number.

Which inhibition reading was recorded for the molecule `CN1C(=O)/C(=N\NC(=O)c2cc([N+](=O)[O-])ccc2O)c2ccccc21` ? 14.3

Which inhibition reading was recorded for the molecule `Cc1ccc(NC(=O)CN2C(=O)/C(=N\NC(=O)c3cccc([N+](=O)[O-])c3)c3ccccc32)cc1` ? 28.8

Which inhibition reading was recorded for the molecule `O=C(CN1C(=O)/C(=N\NC(=O)c2cc([N+](=O)[O-])ccc2O)c2ccccc21)Nc1ccc(C(F)(F)F)cc1` ? 74.6

Which inhibition reading was recorded for the molecule `O=C(CN1C(=O)/C(=N\NC(=O)c2cc([N+](=O)[O-])ccc2O)c2ccccc21)NC1CCCCC1` ? 92

The reported numbers originate from ChEMBL document CHEMBL1154387.
